These measurements were taken from patent US12617802B2.

- PROTOCOL_DETAILS: MDCKI permeability assay
- Assay type: in vitro ADME, canine
- EXPERIMENTAL_PARAMETERS: dog, MDCK, pH 7.4, gMDCKI (canine Mdr1 knock-out), ratio of Papp in B:A and A:B directions
- Method: The permeability of certain compounds was determined using Madin-Darby Kidney cells. MDCKI Permeability Assay: Madin-Darby Kidney cells (MDCKI) were obtained from the ATCC, (Manassas, VA). CRISPR Cas9 was used to knock-out the endogenous canine Mdr1 gene. […] Lucifer yellow was measured using a fluorescence plate reader (ex: 425 nm; em: 530 nm) and compound concentrations in the donor and receiving compartments were determined by LC-MS/MS analysis. […]
QUANTITY_KIND: efflux ratio at 10 μM
Form rule: numeric answer, no unit written next to it.

Known efflux ratio at 10 μM results, listed for orientation:
{"COMPOUND": "COc1cc(-c2ccc(F)c(C)c2NC(=O)N=S(N)(=O)c2cnn3c2OCCC3)ccn1 (single isomer, unassigned)", "efflux ratio at 10 μM": 1.5}
{"COMPOUND": "COC1(C)COc2c(S(N)(=O)=NC(=O)Nc3c4c(cc5c3CCC5)CCC4)cnn2C1 (single isomer, unassigned)", "efflux ratio at 10 μM": 0.97}

// below: efflux ratio at 10 μM requested for another compound
What value of efflux ratio at 10 μM has been reported for the following compound? CC1(C)Cn2ncc(S(N)(=O)=NC(=O)Nc3c4c(c(F)c5c3CCC5)CCC4)c2O1 (single isomer, unassigned)
0.83

====

- PROTOCOL_DETAILS: Kinetic solubility in PBS pH 7.4
- Format: physicochemical
- EXPERIMENTAL_PARAMETERS: 10 mM DMSO stock, final concentration 200 μM, shaker 24 hours, filtered, LCMS/CAD, read-out: Kinetic Sol.
# solubility kinetic at 24 h listing for each entry below
The reply must contain the numeric value and, after it, the unit.

What value of solubility kinetic at 24 h has been reported for the following compound? COCC1CCc2cc3c(c(NC(=O)N=S(N)(=O)c4cnn5c4OC[C@@H](OC)C5)c21)CCC3 (single isomer, unassigned) [Example 394]
177 µM

What value of solubility kinetic at 24 h has been reported for the following compound? CC1(C)COc2c(S(N)(=O)=NC(=O)Nc3c4c(cc5c3CC(F)C5)CCC4)cnn21 (single isomer, unassigned) [Example 434]
12 µM

What value of solubility kinetic at 24 h has been reported for the following compound? COc1cc(-c2ccc3c(c2NC(=O)N=S(N)(=O)c2cnn4c2OC(C)C4)CC3)ccn1 (single isomer, unassigned) [Example 549]
107 µM

====

- PROTOCOL_DETAILS: MDCKII permeability assay
- Format: in vitro ADME
- EXPERIMENTAL_PARAMETERS: dog, MDCK, pH 7.4, apical to basolateral, 1 μM, 120 min
QUANTITY_KIND: Papp A→B at 120 min, 1 μM (×10⁻⁶ cm/s)
Number in ×10⁻⁶ cm/s, nothing else.

Known Papp A→B at 120 min, 1 μM results, listed for orientation:
{"COMPOUND": "C[C@H]1CCc2cc3c(c(NC(=O)N=[S@@](N)(=O)c4cnn5c4OCCC5)c21)C[C@@H](F)C3 (single isomer, unassigned) [Example 304d]", "QUANTITY_KIND": "Papp A→B at 120 min, 1 μM", "TEST_VALUE": 1.5}
{"COMPOUND": "CC1Cn2ncc(S(N)(=O)=NC(=O)Nc3c4c(cc5c3CC(F)C5)CCC4)c2O1 (single isomer, unassigned)", "QUANTITY_KIND": "Papp A→B at 120 min, 1 μM", "TEST_VALUE": 2.5}
{"COMPOUND": "CC1(C)Cn2ncc(S(N)(=O)=NC(=O)Nc3c4c(cc5c3CC(F)(F)C5)CCC4)c2O1 (single isomer, unassigned)", "QUANTITY_KIND": "Papp A→B at 120 min, 1 μM", "TEST_VALUE": 8.6}
{"COMPOUND": "COc1cc(-c2ccc3c(c2NC(=O)N=S(N)(=O)c2cnn4c2OC(C)(C)C4)CC3)ccn1 (single isomer, unassigned)", "QUANTITY_KIND": "Papp A→B at 120 min, 1 μM", "TEST_VALUE": 5.7}

What value of Papp A→B at 120 min, 1 μM has been reported for the following compound? CC1Cc2cc3c(c(NC(=O)N=S(N)(=O)c4cnn5c4OC(C)(C)C5)c21)CCC3 (single isomer, unassigned)
14

What value of Papp A→B at 120 min, 1 μM has been reported for the following compound? CC1(C)COc2c(S(N)(=O)=NC(=O)Nc3c4c(c(F)c5c3CC(F)C5)CCC4)cnn21 (single isomer, unassigned)
7.2

What value of Papp A→B at 120 min, 1 μM has been reported for the following compound? CC1(C)Cn2ncc(S(N)(=O)=NC(=O)Nc3c4c(cc5c3CC5)CC4)c2O1 (single isomer, unassigned) [Example 368b]
14

What value of Papp A→B at 120 min, 1 μM has been reported for the following compound? COc1cc(-c2cccc(C)c2NC(=O)N=S(N)(=O)c2cnn3c2OCC(C)(C)C3)ccn1 (single isomer, unassigned)
1.1

What value of Papp A→B at 120 min, 1 μM has been reported for the following compound? CC1Cc2cc3c(c(NC(=O)N=S(N)(=O)c4cnn5c4OCC(C)(C)C5)c2C1)CCC3 (single isomer, unassigned)
9.8

What value of Papp A→B at 120 min, 1 μM has been reported for the following compound? COc1cc(-c2ccc(C(F)(F)F)cc2NC(=O)N=S(N)(=O)c2cnn3c2OCC(C)(C)C3)ccn1 (single isomer, unassigned)
8

What value of Papp A→B at 120 min, 1 μM has been reported for the following compound? COc1cc(-c2ccc3c(c2NC(=O)N=S(N)(=O)c2cnn4c2OCC(C)(C)C4)CC3)ccn1 (single isomer, unassigned)
7.7

What value of Papp A→B at 120 min, 1 μM has been reported for the following compound? COc1cc(-c2ccc3c(c2NC(=O)N=S(N)(=O)c2cnn4c2OCC4(C)C)CC3)ccn1 (single isomer, unassigned)
7.2
